Just for reference, the supplement of paper PMC9233669 is where these values come from.

- Test system: biotinyl-Leu-oxazolone
- experiment_description: self-aminoacylation, catalytic enhancement (BLO) (fold over background); higher = more active; k-Seq, kA / k0A0; sequences stand for … in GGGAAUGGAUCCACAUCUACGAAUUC…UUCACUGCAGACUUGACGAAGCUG
Fewer inactive variants are shown than the library holds.
Documented self-aminoacylation across a set of sequences

Recorded result, AAGUUUGCUAAUAAUCGAAAG [Fam3.1 aminoacylation ribozyme variant] , self-aminoacylation: 0.95

Recorded result, AUUCACAUAGGUCAUUGGGUG [Fam2.2 aminoacylation ribozyme variant] , self-aminoacylation: 5.11

Recorded result, AUUACCCUGGUCAUUCAGUGA [Fam2.1 aminoacylation ribozyme variant] , self-aminoacylation: 5.37

Recorded result, CUACUUCAAACAAUCGCUCUU [Fam1A.1 aminoacylation ribozyme variant] , self-aminoacylation: 0.539

Recorded result, AUUCACUAAGGUCAUCGGGUG [Fam2.2 aminoacylation ribozyme variant] , self-aminoacylation: 6.72

Recorded result, CCGCACUUCAAGCAAUCGGAC [Fam1B.1 aminoacylation ribozyme variant] , self-aminoacylation: 0.812

Recorded result, CUACACUUCAAGCAAUAGGUC [Fam1B.1 aminoacylation ribozyme variant] , self-aminoacylation: 0.527

Recorded result, AAGUUUGCUAAUAGGCGCUAG [Fam3.1 aminoacylation ribozyme variant] , self-aminoacylation: 0.647

---

- Test system: biotinyl-Leu-oxazolone
- experiment_description: self-aminoacylation, catalytic enhancement (BLO) (fold over background); higher = more active; k-Seq, kA / k0A0; sequences stand for … in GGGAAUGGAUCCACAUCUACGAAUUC…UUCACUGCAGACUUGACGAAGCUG
Variants at the floor of the assay were thinned out.
The threshold is inclusive: self-aminoacylation of exactly 0.9 counts as Y; values below receive N.

>  <construct_sequence>
UUUACCCUGGUCAGCGAGUGA [Fam2.1 aminoacylation ribozyme variant]

>  <class_assignment>
Y

$$$$
>  <construct_sequence>
CCACACAUCAAGCAAUCGUUC [Fam1B.1 aminoacylation ribozyme variant]

>  <class_assignment>
N

$$$$
>  <construct_sequence>
CGACUCUUCAAGCAAUCGGUC [Fam1B.1 aminoacylation ribozyme variant]

>  <class_assignment>
N

$$$$

Task item: Does self-aminoacylation meet or surpass 0.9 for CUAUUUCAAACAGUCGGUCUG [Fam1A.1 aminoacylation ribozyme variant] ?
Reply: N

Task item: Does self-aminoacylation meet or surpass 0.9 for AUUAACCUAUGUCAUCGGGUG [Fam2.2 aminoacylation ribozyme variant] ?
Reply: Y

Task item: Does self-aminoacylation meet or surpass 0.9 for ACACACCUAGGUCAUCGGGUG [Fam2.2 aminoacylation ribozyme variant] ?
Reply: Y

Task item: Does self-aminoacylation meet or surpass 0.9 for AUUACCCUGUUCAUUGAGUGA [Fam2.1 aminoacylation ribozyme variant] ?
Reply: Y

Task item: Does self-aminoacylation meet or surpass 0.9 for CUACUUCAGACAAUCGGUGUG [Fam1A.1 aminoacylation ribozyme variant] ?
Reply: Y

Task item: Does self-aminoacylation meet or surpass 0.9 for CUACUUCAAACACUCUGUCUG [Fam1A.1 aminoacylation ribozyme variant] ?
Reply: N

Task item: Does self-aminoacylation meet or surpass 0.9 for ACUCACCUAGGUCAUCGGAUG [Fam2.2 aminoacylation ribozyme variant] ?
Reply: N

Task item: Does self-aminoacylation meet or surpass 0.9 for AUUACCGUGGUCACCGAGUGA [Fam2.1 aminoacylation ribozyme variant] ?
Reply: Y

Task item: Does self-aminoacylation meet or surpass 0.9 for CCACACUUAAAGCAAUCUGUC [Fam1B.1 aminoacylation ribozyme variant] ?
Reply: N

Task item: Does self-aminoacylation meet or surpass 0.9 for CCACAAUUCAAGCAAGCGGUC [Fam1B.1 aminoacylation ribozyme variant] ?
Reply: Y

Task item: Does self-aminoacylation meet or surpass 0.9 for CAGUUUGCUAAUAGUCGCCAG [Fam3.1 aminoacylation ribozyme variant] ?
Reply: Y

Task item: Does self-aminoacylation meet or surpass 0.9 for AAGGUGGCUAAUAGUCGCAAG [Fam3.1 aminoacylation ribozyme variant] ?
Reply: Y

Task item: Does self-aminoacylation meet or surpass 0.9 for CUACUUCAAACAAGCGUUCUG [Fam1A.1 aminoacylation ribozyme variant] ?
Reply: N

Task item: Does self-aminoacylation meet or surpass 0.9 for CUACUCCAAACUAUCGGUCUG [Fam1A.1 aminoacylation ribozyme variant] ?
Reply: N

Task item: Does self-aminoacylation meet or surpass 0.9 for CCCCACUUCAAGCAAUCGUUC [Fam1B.1 aminoacylation ribozyme variant] ?
Reply: N

Task item: Does self-aminoacylation meet or surpass 0.9 for AAUUAUGCUAAUAGUCGCAAG [Fam3.1 aminoacylation ribozyme variant] ?
Reply: Y

Task item: Does self-aminoacylation meet or surpass 0.9 for AUGAACCUAGGUCAUCGGGUG [Fam2.2 aminoacylation ribozyme variant] ?
Reply: Y

Task item: Does self-aminoacylation meet or surpass 0.9 for AUUCACCUAGGUGAUCCGGUG [Fam2.2 aminoacylation ribozyme variant] ?
Reply: Y

Task item: Does self-aminoacylation meet or surpass 0.9 for UUUCACCUAUGUCAUCGGGUG [Fam2.2 aminoacylation ribozyme variant] ?
Reply: Y

Task item: Does self-aminoacylation meet or surpass 0.9 for CUACCUCAAACAAUCGGUCUU [Fam1A.1 aminoacylation ribozyme variant] ?
Reply: N

---

- Tested on: biotinyl-Phe-oxazolone
- experiment_description: self-aminoacylation, catalytic enhancement (BFO) (fold over background); higher = more active; k-Seq, kA / k0A0; sequences stand for … in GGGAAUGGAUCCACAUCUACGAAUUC…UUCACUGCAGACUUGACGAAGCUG
Variants at the floor of the assay were thinned out.
experimental_readout: self-aminoacylation
# print the numeric value only

// known answers, use as guide
>  <construct_sequence>
AUUACCCUGGUCAUUGAGGGA [Fam2.1 aminoacylation ribozyme variant]

>  <tested_target>
biotinyl-Phe-oxazolone

>  <reported_measurement>
1.13

$$$$
>  <construct_sequence>
AAGUUUCGUAAUAGUCGCAAG [Fam3.1 aminoacylation ribozyme variant]

>  <tested_target>
biotinyl-Phe-oxazolone

>  <reported_measurement>
2.26

$$$$

Here is another sequence to look at.
Recorded result, UUACUUCAAAGAAUCGGUCUG [Fam1A.1 aminoacylation ribozyme variant] , self-aminoacylation: 2.71

---

Documented self-aminoacylation across a set of sequences
- Test system: biotinyl-Trp-oxazolone
- experiment_description: self-aminoacylation, catalytic enhancement (BWO) (fold over background); higher = more active; k-Seq, kA / k0A0; sequences stand for … in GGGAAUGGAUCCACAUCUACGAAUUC…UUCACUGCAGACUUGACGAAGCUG
Variants at the floor of the assay were thinned out.
# print the numeric value only

>  <construct_sequence>
CAACUUCAAACAAUCUGUCUG [Fam1A.1 aminoacylation ribozyme variant]

>  <tested_target>
biotinyl-Trp-oxazolone

>  <reported_measurement>
2.14

$$$$
>  <construct_sequence>
AUUACCCAGGUCUUCGAGUGA [Fam2.1 aminoacylation ribozyme variant]

>  <tested_target>
biotinyl-Trp-oxazolone

>  <reported_measurement>
8.2

$$$$
>  <construct_sequence>
AAGUUUGCUAAUAGCCGCAAG [Fam3.1 aminoacylation ribozyme variant]

>  <tested_target>
biotinyl-Trp-oxazolone

>  <reported_measurement>
2.2

$$$$
>  <construct_sequence>
AUUCACAUAGGUCAUCUGGUG [Fam2.2 aminoacylation ribozyme variant]

>  <tested_target>
biotinyl-Trp-oxazolone

>  <reported_measurement>
3.03

$$$$
>  <construct_sequence>
CCACACUUCAAGCACUCGGGC [Fam1B.1 aminoacylation ribozyme variant]

>  <tested_target>
biotinyl-Trp-oxazolone

>  <reported_measurement>
3.37

$$$$
>  <construct_sequence>
AAGUGGGCUAAUAGUCGCAAG [Fam3.1 aminoacylation ribozyme variant]

>  <tested_target>
biotinyl-Trp-oxazolone

>  <reported_measurement>
1.73

$$$$
>  <construct_sequence>
GUUCACCUAGGUCAUCGGGAG [Fam2.2 aminoacylation ribozyme variant]

>  <tested_target>
biotinyl-Trp-oxazolone

>  <reported_measurement>
2.13

$$$$
>  <construct_sequence>
CUACUUUAAACAGUCGGUCUG [Fam1A.1 aminoacylation ribozyme variant]

>  <tested_target>
biotinyl-Trp-oxazolone

>  <reported_measurement>
0.651

$$$$
>  <construct_sequence>
AAGUUUGUUAAUAAUCGCAAG [Fam3.1 aminoacylation ribozyme variant]

>  <tested_target>
biotinyl-Trp-oxazolone

>  <reported_measurement>
0.883

$$$$
>  <construct_sequence>
CCACACUUCAAGCAAUCAGCC [Fam1B.1 aminoacylation ribozyme variant]

>  <tested_target>
biotinyl-Trp-oxazolone

>  <reported_measurement>
2.26

$$$$

Recorded result, CCAGACUUCAAGCAAUCGGUG [Fam1B.1 aminoacylation ribozyme variant] , self-aminoacylation: 7.25

Recorded result, AAGUUGGCUAAUCGUCGCAAG [Fam3.1 aminoacylation ribozyme variant] , self-aminoacylation: 2.24

Recorded result, AUUCACCUAUUUCAUCGGGUG [Fam2.2 aminoacylation ribozyme variant] , self-aminoacylation: 3.17

Recorded result, AGUACACUGGUCAUCGAGUGA [Fam2.1 aminoacylation ribozyme variant] , self-aminoacylation: 5.76

Recorded result, AUUACCACGGUCAUCGAGUGA [Fam2.1 aminoacylation ribozyme variant] , self-aminoacylation: 8.11
